# Test name: Antioxidant activity assessed as inhibition of HOCl-induced oxidation of DHR by rhodamine 123 staining
# Assay type: functional
Endpoint name: pIC50
Recall that pIC50 is obtained by taking minus log10 of the concentration measured in molar.

(Q) State the recorded pIC50 for this entry: `COC(=O)[C@H](Cc1c[nH]c2ccccc12)NC(C)=O`
(A) 4.30

(Q) State the recorded pIC50 for this entry: `O=C1c2ccccc2C(=O)N1CCc1c[nH]c2ccccc12`
(A) 4.95

(Q) State the recorded pIC50 for this entry: COC(=O)C(Cc1cn(CC=C(C)C)c2ccccc12)N1C(=O)c2ccccc2C1=O (configuration not stated)
(A) 4.46

(Q) State the recorded pIC50 for this entry: NCCc1c[nH]c2ccccc12 [TRYPTAMINE]
(A) 5.22

(Q) State the recorded pIC50 for this entry: COC(=O)C(Cc1c[nH]c2ccccc12)N1C(=O)c2ccccc2C1=O (configuration not stated)
(A) 4.56

(Q) State the recorded pIC50 for this entry: `COC(=O)[C@H](Cc1cn(C/C=C/c2ccccc2)c2ccccc12)NC(C)=O`
(A) 4.17

(Q) State the recorded pIC50 for this entry: CC(C)=CCn1cc(CC(N)C(=O)O)c2ccccc21 (configuration not stated)
(A) 5.38

====

# Test name: Antioxidant activity assessed as inhibition of singlet oxygen-induced oxidation of DHR by rhodamine 123 staining
# Type: functional
# Experimental setup: read-out: IC50
Endpoint name: pIC50
Recall that pIC50 is obtained by taking minus log10 of the concentration measured in molar.

The cases that follow already have their pIC50 on record.
COC(=O)[C@H](Cc1cn(CCCc2ccccc2)c2ccccc12)NC(C)=O = 3.30
COC(=O)[C@H](Cc1cn(CCC(C)C)c2ccccc12)NC(C)=O = 3.14
COC(=O)[C@H](Cc1cn(CC=C(C)C)c2ccccc12)NC(C)=O = 3.11
COC(=O)C(Cc1c[nH]c2ccccc12)N1C(=O)c2ccccc2C1=O (stereo not given) = 3.03

Now take the following molecule into account.
(Q) State the recorded pIC50 for this entry: `CC(C)=CCn1cc(CCN)c2ccccc21`
(A) 3.21

====

# Test name: Antioxidant activity assessed as inhibition of HOCl-induced oxidation of DHR by rhodamine 123 staining
# Assay type: functional
Lab note: class by IC50, see interval 1 = under 6 µM, interval 2 = from 6 µM up to 10 µM, interval 3 = 10 µM and over

Examples with answers:
COC(=O)[C@H](Cc1cn(CCC(C)C)c2ccccc12)NC(C)=O = interval 2
COC(=O)[C@@H](N)Cc1c[nH]c2ccccc12 = interval 2

(Q) Entry COC(=O)C(Cc1c(CCC(C)C)[nH]c2ccccc12)N1C(=O)c2ccccc2C1=O (stereo unspecified) belongs to which category?
(A) interval 1

(Q) Entry `COC(=O)[C@H](Cc1cn(CCCc2ccccc2)c2ccccc12)NC(C)=O` belongs to which category?
(A) interval 3

(Q) Entry CC(C)=CCc1[nH]c2ccccc2c1CC(N)C(=O)O (stereo unspecified) belongs to which category?
(A) interval 1

(Q) Entry `COC(=O)[C@H](Cc1cn(CC=C(C)C)c2ccccc12)NC(C)=O` belongs to which category?
(A) interval 3

(Q) Entry `CC(C)=CCn1cc(CCN)c2ccccc21` belongs to which category?
(A) interval 3

====

# Test name: Antioxidant activity assessed as trolox equivalent of peroxyl radical scavenging activity by ORAC assay
# Format: functional
Calls of active or inactive are those of the source. The calls are words filed in the database; no cut-off is given here.
Endpoint name: fold change (FC)

The cases that follow already have their fold change (FC) on record.
CC(C)CCn1cc(CCN2C(=O)c3ccccc3C2=O)c2ccccc21 = inactive
COC(=O)[C@H](Cc1c[nH]c2ccccc12)NC(C)=O = 1.21
CC(C)=CCn1cc(CCN)c2ccccc21 = 0.96
N[C@@H](Cc1c[nH]c2ccccc12)C(=O)O = 2.74

(Q) State the recorded fold change (FC) for this entry: `COC(=O)[C@@H](N)Cc1c[nH]c2ccccc12`
(A) 2.6
